Biological target: SARS-CoV-2 NSP3 Mac1 (Severe acute respiratory syndrome coronavirus 2, UniProt P0DTD1)
Assay type: binding
Parameters: contains a conserved macrodomain enzyme (Mac1)
Conditions: maximal thermal upshift vs DMSO control
metric_name: DSF max dTma (°C)

1) Cc1cc(C)nc(CSc2nnc3c(=O)[nH]c4ccccc4n23)c1
0.36
2) Cc1nc2c(C(=O)OCc3ccnc(N(C)C)c3)ccnc2[nH]1
1.08
3) Cc1[nH]c2ncnc(N3CCOC(CC(F)(F)F)C3)c2c1C (stereo not shown)
0.51
4) OC[C@H]1CCCN(c2ncnc3[nH]c4cc(F)ccc4c23)C1
1.5
5) Nc1ncnc2c1ncn2Cc1ccc(Cl)cn1
0.98
6) O=S1(=O)CCC2(CCCN(c3ncnc4[nH]ccc34)C2)C1 (stereo not shown)
1.26
7) C[C@@H]1CN(c2ncnc3[nH]c4ccccc4c23)C[C@@H](CO)O1
0.46
8) Cc1oc(-c2cccs2)nc1Cc1nc(-c2cncnc2N)no1
0.56
9) CN(Cc1nnc2c(=O)[nH]ccn12)c1cc(Cl)nc(C2CC2)n1
0.14
10) CN(C(=O)CN1CCNC(=O)C1)c1ccc(-c2nccs2)cc1
0
11) Cc1ccc(-c2nc(Cn3cnc4c(N)nc(N)nc43)cs2)o1
0.71
12) CNc1cc(-c2noc(CN3CCCC3=O)n2)ncn1
0.33
13) CC(C)c1noc(CCc2nc(-c3ccnc4[nH]ccc34)no2)n1
0
14) O=c1[nH]nc(C2CCCN(c3ncnc4[nH]ccc34)C2)o1 (stereo not shown)
0.6
15) Cc1n[nH]c2ncc(CN3CC(C)Oc4c(F)cccc43)cc12 (stereo not shown)
0.16
16) CN(Cc1cccc(O)c1)C(=O)Cc1ccncc1
0.19
17) O=C(Cc1ccc(-n2cccn2)cc1)OCC1CCCNC1=O (stereo not shown)
0.16
18) CC(O)CNc1cc(N2CC3(CCC3)C(F)(C(=O)O)C2)ncn1 (stereo not shown)
0.96
19) CCc1c[nH]c2ncnc(N3CCC[C@H](C(N)=O)C3)c12
1.77
20) Cc1nc(Cc2noc(Cc3ccc4[nH]ncc4c3)n2)no1
0.45
21) Nc1cc(-c2noc(CCn3cccn3)n2)ncn1
1.48
22) Nc1ncnc2c1ncn2Cc1cccc(C(F)(F)F)c1
0.5
23) Cc1csc(=Nc2ccccc2)n1Cc1nnc2n1CCNC2=O
0.51
24) Cc1ccc(C(=O)N2CC[C@H](Oc3ccccc3)C2)cc1O
0.36
25) O=C(Cc1ccc2c(c1)CCO2)OCc1cc2ccccc2[nH]c1=O
0.21
26) O=C(Nc1nc2ccccc2c(=O)[nH]1)c1cccnc1
0.49
27) O=C(c1cccc(O)c1)N1CCC(Nc2ccccc2)C1 (stereo not shown)
0.37
28) O=C(NC1c2ccccc2CC1C(=O)O)c1ccc(NC(=O)C2CC2)cc1 (stereo not shown)
0.79
29) CC(c1ccc(Cl)c(Cl)c1)S(=O)(=O)Cc1cn[nH]c1 (stereo not shown)
0
30) Nc1ncnc(N2CCC(Oc3ccncc3)C2)c1Cl (stereo not shown)
0
31) CCc1c[nH]c2ncnc(N3CCCC(Cc4nc(C)no4)C3)c12 (stereo not shown)
0.6
32) Nc1ncnc2c1ncn2CCCc1ccsc1
0.51
33) COC(=O)CC1CN(c2ncnc3[nH]ccc23)c2ccccc21 (stereo not shown)
0.79
34) CNC(=O)Nc1ccc(C(=O)NC2c3ccccc3CC2C(=O)O)cc1 (stereo not shown)
3.71
35) O=C(COC(=O)c1ccc2nsnc2c1)c1ccccc1
0.47
36) CC1CN(C(=O)CCc2nc(-c3ccncc3)no2)C1c1ccccc1 (stereo not shown)
0.6
37) Fc1ccc(F)c(Sc2ncnc3[nH]ccc23)c1
1.24
38) c1ccc2c(c1)N(c1ncnc3[nH]ccc13)CC21CC1
0
39) O=C(c1ncnc2[nH]ccc12)N1CC=CC12CCCCC2
0.93
40) O=C(O)CC1CN(c2ncnc3[nH]ccc23)CCO1 (stereo not shown)
0.66
41) Cc1cnc(COC(=O)C(C)(C)c2ccc(O)cc2)o1
0.06
42) CN(Cc1nnc2c(=O)[nH]ccn12)C(=O)COC1CC1
0.49
43) Cc1nc(Cn2cnc3c(N)nc(N)nc32)cs1
0.53
